Molecular target: cdk2/cyclin A (Homo sapiens, UniProt P24941)
Assay: Inhibition assay of cdk2/Cyclin A activity (SPA)
Conditions: tested against cdk2/cyclin A; read-out: inhibitory activity, expressed as IC50
Field: pIC50. Provide a value for each of the molecules that follow.
Please express pIC50 as -log10 of the molar concentration.

Lookup: Dear colleague, please send me the reported pIC50 for CC(=O)Nc1ccc(CC(=O)Nc2ncc(C(C)C)s2)cc1 when you can.
Found: 6.96

Lookup: Dear colleague, please send me the reported pIC50 for CC(=O)Nc1ccc([C@H](C)C(=O)Nc2ncc(C(C)C)s2)cc1 when you can.
Found: 7.96
